B1: Caulobacter ParB omega fusion; a variant is named by its letters at X, in order, B8GW30 (parent)
chain: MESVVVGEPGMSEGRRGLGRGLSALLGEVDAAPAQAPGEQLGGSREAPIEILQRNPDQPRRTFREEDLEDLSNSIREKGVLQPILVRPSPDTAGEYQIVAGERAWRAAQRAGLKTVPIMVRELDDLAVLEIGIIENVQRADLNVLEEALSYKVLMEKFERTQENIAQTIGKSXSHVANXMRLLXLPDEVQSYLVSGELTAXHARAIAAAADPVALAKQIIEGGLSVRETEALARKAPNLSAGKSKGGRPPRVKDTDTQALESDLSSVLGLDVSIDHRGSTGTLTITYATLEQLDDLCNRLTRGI

- Variants of: B1
- TEST_METHOD_NOTES: one-hybrid fitness for binding parS DNA (scaled: cognate 1, non-cognate 0); higher = stronger binding
- MEASUREMENT_PARAMETERS: with parS DNA site
Whole data set: some 81,000 sequences, median “one-hybrid fitness for binding parS DNA” near -0.17, cut for the highest 2% near 0.51. The list comes from a sample in which the highest values are over-represented; it also holds close analogues and randomly drawn sequences.

| VARIANT_LABEL | one-hybrid fitness for binding parS DNA |
| --- | --- |
| VPHG | ≤ 0.2 |
| RAWQ | ≤ 0.2 |
| QTCI | ≤ 0.2 |
| TSSY | ≤ 0.2 |
| RAHC | 0.983 |
| DGAP | ≤ 0.2 |
| RAWF | 0.245 |
| RAWC | 0.927 |
| RARC | 0.921 |
| RARR | ≤ 0.2 |
| RAHQ | ≤ 0.2 |
